Data origin, for the record: patent US20260258115A1

biological target: RSV F on RSV-A2 virus (Respiratory Syncytial Virus (RSV-A2), UniProt P03420 26-574); assay: cell-based or functional assay

| Binder | Neutralization IC50 (RSV subtype A) |
| --- | --- |
| ADI-41457 (antibody, V domains shown, also called Ab 741; Antibody Number 741) VH: EVQLVESGGGLVRPGGSLRVSCAASGFTFIRYDMHWVRQAPGKGLEWVSGIGTAGDTYYAASVQGRFTISRENAKNSLYLQMSNLRPGDTAVYYCAGSMAATGIDQWGQGTLVTVSS VL: EIVMTQSPLTLPVTPGEPASISCRSSQSLLHSNGFTYLDWFLQKPGQSPQLLIFLGSNRASGVPDRFSGSGSGTDFTLKISRVEAEDVGIYYCMQALQTPYTFGQGTKVEIK | > 25 µg/mL |
| ADI-41503 (antibody, V domains shown) VH: EVQLLESGGGLVQPGGSLRLSCAASGFTFSDFPLSWVRQAPGKGLVWVSAISSSGGDTYYADSVKGRFTISRDSSKNALYLQMNSLRAEDTAVYYCAKGQELLRPYYYGMDVWGQGTTVTVSS VL: QSALIQPASVSGSPGQSITISCTGTSSDVGGYNFVSWYQQHPGKAPKLMIFEVSNRPSGVSHRFSGSKSGNTASLTISGLQAEDEADYYCSSCTSRFTYVFGTGTKLTVL | > 25 µg/mL |
